Taken from PubChem BioAssay.

Recorded inhibition, one value per entry.
# PROTOCOL DESCRIPTION: inhibitors of Sendai virus-induced IRF3 signaling, primary screen, TLR/RLR signaling modifier project, cell-based, Sendai virus stimulus, luciferase, 10K MLSCN set (AID 602276);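 also: firefly luciferase from ISG56 promoter only with Renilla not read in this screen; 0% = Sendai virus plus DMSO and 100% = medium plus DMSO without virus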
# CONDITION DETAILS: HEK293 RL24 IRF3 luciferase reporter, at 10 µM, active compounds read high
Give the number; % is assumed, so skip it.

- O=C(C1CCN(c2nnc(-n3cccc3)s2)CC1)N1CCOCC1: 7.65

[ask] Given "O=S(=O)(Nc1nc2ccccc2nc1NCc1ccco1)c1cccs1" , state its recorded inhibition.
[reply] 14.7

[ask] Field entry: "CCOC(=O)c1[nH]c(C)c(C(=O)NCc2ccccn2)c1C"
[reply] 17.5

[ask] Also need "O=C(c1ccco1)N1CCN(c2cccc(Cl)c2)CC1" , thanks.
[reply] -26.6

[ask] Another compound to look at: "CCCCNC(=O)c1nnn(-c2ccccc2)c1N"
[reply] -55.7

[ask] Field entry: CC(C)C(NC(=O)c1ccc(S(=O)(=O)N2CCOCC2)cc1)c1nc2ccccc2[nH]1 (centres undefined)
[reply] 13.3

###

# PROTOCOL DESCRIPTION: inhibitors of poly I:C-induced TLR3 signaling, primary screen, cell-based, poly I:C stimulus, luciferase, 10K MLSCN set (AID 602277)
# CONDITION DETAILS: HEK293-TLR3 RL24 IRF3 luciferase reporter, at 10 µM, active compounds read high
READOUT LABEL: inhibition (%)
Please reply with the bare figure in % and do not write the unit itself.

• CCOC(=O)Cc1nnc2c(Nc3ccc(C)cc3)nc3nonc3n12 = 34.9
• Cc1ccc(CCNC(=O)C2CCC(=O)N2C2CCCC2)cc1 (stereo unspecified) = 10.9
• Cc1cc(C(=O)Nc2cccnc2)no1 = -20.9
• O=C1c2cccnc2C(=O)N1c1cccc(-c2nc3ccccc3o2)c1 = 13.5

[ask] Entry under review: "COc1ccccc1N1CCN(C(=O)c2c(-c3c(Cl)cccc3Cl)noc2C)CC1" . Reported inhibition?
[reply] 38.3

[ask] Do the same for CC1Cc2nc(SCC(=O)Nc3nccs3)n(C)c(=O)c2S1 (stereo unspecified) please
[reply] 28.2

[ask] And what about the molecule CC1(C)NC(=O)N(CC(O)CN2CCCC2)C1=O (stereo unspecified) ?
[reply] -4.68

[ask] Entry to check: "CN(Cc1nc(-c2ccncc2)no1)S(=O)(=O)c1ccccc1"
[reply] 13.2

###

# STUDY TARGET: Voltage-gated potassium channel subunit beta-2 (Rattus norvegicus)
# PROTOCOL DESCRIPTION: KvBeta enzyme negative modulators, primary screen, biochemical, NADPH fluorescence (AID 622);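 also: slope of raw intensity against log time taken from 70 to 1610 s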
# CONDITION DETAILS: recombinant KvBeta, 4-cyanobenzaldehyde reduction, at 10 µM, active compounds read high
The source made the active and inactive calls.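 How the source made its calls: active means fluorescence slope higher than the sample average by over 3 SD (cut at about -0.22 in these data, passing the limit was not always enough); inactive means the rest.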
Reported fluorescence slope values follow for various molecules

Example results:
• C=CCOc1ccc(C2/C(=C(\O)c3ccc(F)cc3)C(=O)C(=O)N2CCCN(C)C)cc1 (stereo not given) = -0.451 (inactive)
• O=C(Nc1ncc(Br)s1)C1CCCN1S(=O)(=O)c1cccc2cccnc12 (stereo not given) = -0.583 (inactive)
• CC(C)NCc1c(O)c(Br)cc2oc3c(c12)CCCC3 = -0.517 (inactive)
• COc1ccc(Cn2nnnc2C(c2cccnc2)N2CCN(c3ccc(O)cc3)CC2)cc1 (stereo not given) = -0.514 (inactive)

Next up:
[ask] # lookup: fluorescence slope of "Cc1ccccc1Cc1c(C)nc2c(C(=O)N3CCN(Cc4ccc5c(c4)OCO5)CC3)cnn2c1C"
[reply] -0.415 (inactive)
